Data origin: ChEMBL document CHEMBL6078649

# method: Cytotoxicity against mouse RAW264.7 cells assessed as cell viability at 50 uM incubated for 24 hrs by CCK8 assay relative to control
# Type: toxicity, cell-based
# experimental.parameters: read-out: Activity
measurement.label: viability at 24 h, 50 µM (%)
Please state the figure in %; there is no need to write the unit.

Examples from the recorded data:
[[record]]
chemical_smiles = "O=C(/C=C/c1c(Cl)c(O)c(O)c(O)c1Cl)c1ccc(-c2ccc(F)cc2)cc1"
readout_value = 11.2

[[record]]
chemical_smiles = "O=C(/C=C/c1c(Cl)c(O)c(O)c(O)c1Cl)c1ccc(F)cc1Cl"
readout_value = 52.4

[[record]]
chemical_smiles = "O=C(/C=C/c1c(Cl)c(O)c(O)c(O)c1Cl)c1ccccc1"
readout_value = 96.9

[[record]]
chemical_smiles = "O=C(/C=C/c1c(Cl)c(O)c(O)c(O)c1Cl)c1ccc(Cl)c(Cl)c1"
readout_value = 12.5


Q: Please give the measured viability at 24 h, 50 µM for this compound: Oc1cc(CCCc2ccc(F)cc2)cc(O)c1O
Ans: 93.6

Q: // next record O=C(O)/C=C/c1c(Cl)c(O)c(O)c(O)c1Cl
Ans: 82.1
